Cited source: patent US20170165365A1

Exercise: for every item that follows, state its recorded kon.
molecular target: T1, human HER3 antigen (Sino Biologicals) (human, UniProt P21860 20-643); assay: SPR (ProteOn XPR36), IgG captured by anti-human Fc, soluble monovalent antigen, 1:1 fit
T1 construct: Bought soluble antigen; also called human antigen
Numbers only, in M⁻¹ s⁻¹.

binder="humanized anti-HER3 antibody 11006 (antibody, V domains shown) VH: QVQLQESGPGLVKPSQTLSLTCTVSGYSITSAYYWNWIRQHPGKGVEWMGYIGYSGRNTYNPSLKNRVTISRDTSKNQFSLKLSSVTAADTAVYYCSREGDYGYSDYWGQGTLVTVSS VL: DIQMTQSPSSLSASVGDRVTVTCRASQDTNNYLNWYQQKPGKAVKLLIYYTSRLQSGVPSRFSGSGSGTDFTLTISSLQPEDFATYFCQQSETLPWTFGQGTKVEIK" assay_endpoint=kon reported_value=740000

Could you now consider this next binder?
// returns reported kon for input humanized anti-HER3 antibody 10810 (antibody, V domains shown) VH: QVQLQESGPGLVKPSQTLSLTCTVSGYSITSGFYWTWIRQHPGNGLEWIGFISYSGSNNYNPSLKNRVTISVDTSKNQFSLKLSSVTAADTATYYCARGGGYYGNLFDYWGQGTLVTVSS VL: DIQMTQSPSSLSASVGDRVTITCRPSQDISNYVNWFQQKPGKAPKLLIFHTSRLHSGVPSRFSGSGSGTDFTLTISSLQPEDIATYYCQQGITLPWTFGQGTKVEIK
190000
